Settings: human gut metagenome, 24 h, 2 µM; note: call rule not given here

| compound | Bacterial Biotransformation |
| --- | --- |
| Cc1nc2n(c(=O)c1CCN1CCC(c3noc4cc(F)ccc34)CC1)CCCC2 [RISPERIDONE] | Compound metabolized |
| CN(C)C(=O)C(CCN1CCC(O)(c2ccc(Cl)cc2)CC1)(c1ccccc1)c1ccccc1 [LOPERAMIDE] | Compound metabolized |
| CN1C(=O)CC(C)(c2ccccc2)C1=O (stereo not drawn) [METHSUXIMIDE] | Compound NOT metabolized |
| CN1CCc2cccc3c2[C@H]1Cc1ccc(O)c(O)c1-3 [APOMORPHINE] | Compound NOT metabolized |
| CN(C)CC(c1ccc(O)cc1)C1(O)CCCCC1.O=C(O)CCC(=O)O (stereo not drawn) [DESVENLAFAXINE SUCCINATE] | Compound NOT metabolized |
| CC(CN(C)C)CN1c2ccccc2CCc2ccccc21.O=C(O)/C=C\C(=O)O (stereo not drawn) [TRIMIPRAMINE MALEATE] | Compound NOT metabolized |
| CCN(CC)CC#CCOC(=O)C(O)(c1ccccc1)C1CCCCC1.Cl (stereo not drawn) [OXYBUTYNIN CHLORIDE] | Compound NOT metabolized |
| CCN(CC)CCOC(=O)C(Cc1cccc2ccccc12)CC1CCCO1.O=C(O)C(=O)O (stereo not drawn) [NAFRONYL OXALATE] | Compound metabolized |
| Cc1nc2n(c(=O)c1CCN1CCC(c3noc4cc(F)ccc34)CC1)CCCC2O (stereo not drawn) [PALIPERIDONE] | Compound metabolized |
| Cc1ccnc2c1NC(=O)c1cccnc1N2C1CC1 [NEVIRAPINE] | Compound metabolized |
| CN/C(=N/CCSCc1nc[nH]c1C)NC#N [CIMETIDINE] | Compound NOT metabolized |
| COc1ccc2c3c1O[C@H]1C[C@@H](O)C=C[C@@]31CCN(C)C2 [GALANTAMINE] | Compound NOT metabolized |
| OCCN1CCN(CCCN2c3ccccc3Sc3ccc(C(F)(F)F)cc32)CC1 [FLUPHENAZINE] | Compound metabolized |
| CN1C(=O)CCS(=O)(=O)C1c1ccc(Cl)cc1 (stereo not drawn) [CHLORMEZANONE] | Compound NOT metabolized |
| Fc1ccc([C@@H]2CCNC[C@H]2COc2ccc3c(c2)OCO3)cc1 [PAROXETINE] | Compound NOT metabolized |
| Cc1cc2c(cc1S(N)(=O)=O)S(=O)(=O)CCC2 | Compound NOT metabolized |
| CC(=O)O[C@]1(C(C)=O)CC[C@H]2[C@@H]3C=C(Cl)C4=CC(=O)[C@@H]5C[C@@H]5[C@]4(C)[C@H]3CC[C@@]21C [CYPROTERONE ACETATE] | Compound metabolized |
| COC(=O)Nc1nc2ccc(C(=O)c3ccccc3)cc2[nH]1 [MEBENDAZOLE] | Compound metabolized |

* * *

Conditions: human gut metagenome, 24 h, 2 µM
readout_label: Bacterial Biotransformation

| compound | test_result |
| --- | --- |
| C[C@@H](CO)NC(=O)[C@@H]1C=C2c3cccc4[nH]cc(c34)C[C@H]2N(C)C1.O=C(O)/C=C\C(=O)O [ERGONOVINE MALEATE] | Compound metabolized |
| Nc1ccc(/N=N/c2ccccc2)c(N)n1 [PHENAZOPYRIDINE] | Compound metabolized |
| COc1ccc2c3c1O[C@H]1C[C@@H](O)C=C[C@@]31CCN(C)C2 [GALANTAMINE] | Compound NOT metabolized |
| Cc1ccc(S(=O)(=O)NC(=O)NN2CCCCCC2)cc1 [TOLAZAMIDE] | Compound NOT metabolized |
| COc1ccccc1N1CCN(CC(O)COc2cccc3ccccc23)CC1 (configuration not stated) [NAFTOPIDIL] | Compound NOT metabolized |
| CC[C@H](C)C(=O)O[C@H]1C[C@@H](C)C=C2C=C[C@H](C)[C@H](CC[C@@H]3C[C@@H](O)CC(=O)O3)[C@H]21 [LOVASTATIN] | Compound NOT metabolized |
| COC(=O)[C@H]1[C@H]2C[C@@H]3c4[nH]c5cc(OC)ccc5c4CCN3C[C@H]2C[C@@H](OC(=O)c2cc(OC)c(OC)c(OC)c2)[C@@H]1OC [RESERPINE] | Compound metabolized |

* * *

Details: human gut metagenome, 24 h, 2 µM

| compound | Bacterial Biotransformation |
| --- | --- |
| CN1C(C(=O)Nc2ccccn2)=C(O)c2sccc2S1(=O)=O | Compound metabolized |
| CN1CCc2c(c3ccccc3n2Cc2ccccc2)C1.CN1CCc2c(c3ccccc3n2Cc2ccccc2)C1.O=S(=O)(O)c1cccc2c(S(=O)(=O)O)cccc12 | Compound NOT metabolized |
| CC(C)(C#N)c1cc(Cn2cncn2)cc(C(C)(C)C#N)c1 | Compound metabolized |
| OCCOCCN1CCN(C2=Nc3ccccc3Sc3ccccc32)CC1 | Compound NOT metabolized |
| CC(=O)CC(c1ccccc1)c1c(O)c2ccccc2oc1=O (centres undefined) | Compound metabolized |
| COC(=O)Nc1nc2ccc(C(=O)c3ccccc3)cc2[nH]1 | Compound metabolized |
| CCN(CC)CCOCCOC(=O)C1(c2ccccc2)CCCC1.O=C(O)CC(O)(CC(=O)O)C(=O)O [CARBETAPENTANE CITRATE] | Compound metabolized |
| CN1CCOC(c2ccccc2)c2ccccc2C1 (centres undefined) | Compound metabolized |
| CN1C[C@H](C(=O)N[C@]2(C)O[C@@]3(O)[C@@H]4CCCN4C(=O)[C@H](Cc4ccccc4)N3C2=O)C=C2c3cccc4[nH]cc(c34)C[C@H]21.CN1C[C@H](C(=O)N[C@]2(C)O[C@@]3(O)[C@@H]4CCCN4C(=O)[C@H](Cc4ccccc4)N3C2=O)C=C2c3cccc4[nH]cc(c34)C[C@H]21.O=C(O)C(O)C(O)C(=O)O [ERGOTAMINE TARTRATE] | Compound metabolized |
| CC(C)NCC(O)c1ccc(NS(C)(=O)=O)cc1 (centres undefined) | Compound NOT metabolized |
| Cc1ccnc2c1NC(=O)c1cccnc1N2C1CC1 | Compound metabolized |
| COC1=CC(=O)C[C@@H](C)[C@]12Oc1c(Cl)c(OC)cc(OC)c1C2=O | Compound metabolized |
| O=C(NCc1ccccc1)OCCO [BURAMATE] | Compound NOT metabolized |
| C[C@@H]1C[C@H]2[C@@H]3CCC4=CC(=O)C=C[C@]4(C)[C@@]3(F)[C@@H](O)C[C@]2(C)[C@@]1(O)C(=O)CO | Compound NOT metabolized |
| NC(CO)(CO)CO.O=C(c1ccccc1)c1ccc2n1CCC2C(=O)O (centres undefined) | Compound metabolized |
| COc1ccc(CCN(C)CCCC(C#N)(c2ccc(OC)c(OC)c2)C(C)C)cc1OC (centres undefined) | Compound metabolized |
| O=C1[C@H](CC[C@H](O)c2ccc(F)cc2)[C@@H](c2ccc(O)cc2)N1c1ccc(F)cc1 | Compound NOT metabolized |
| CCN(CC)C(C)CN1c2ccccc2Sc2ccccc21 (centres undefined) | Compound metabolized |
| CCCCC(=O)N(Cc1ccc(-c2ccccc2-c2nnn[nH]2)cc1)[C@H](C(=O)O)C(C)C | Compound metabolized |
| Cc1cn([C@H]2C[C@H](N=[N+]=[N-])[C@@H](CO)O2)c(=O)[nH]c1=O | Compound NOT metabolized |
| NC(=O)N1c2ccccc2CC(=O)c2ccccc21 [OXCARBAZEPINE] | Compound NOT metabolized |
| C=CCN1CC[C@]23c4c5ccc(O)c4O[C@H]2C(=O)CC[C@@]3(O)[C@H]1C5 | Compound NOT metabolized |
| CCN(CC)CCNC(C(=O)OCCC(C)C)c1ccccc1.Cl.Cl (centres undefined) | Compound NOT metabolized |
| CCc1nn(CCCN2CCN(c3cccc(Cl)c3)CC2)c(=O)n1CCOc1ccccc1 | Compound metabolized |
| OC(CCN1CCCCC1)(c1ccccc1)C1CCCCC1 (centres undefined) | Compound metabolized |
| CCC(COC(=O)c1cc(OC)c(OC)c(OC)c1)(c1ccccc1)N(C)C.O=C(O)/C=C\C(=O)O (centres undefined) | Compound metabolized |
| CN1C(=O)CCS(=O)(=O)C1c1ccc(Cl)cc1 (centres undefined) | Compound NOT metabolized |
| c1ccc([C@H]2CN3CCSC3=N2)cc1 | Compound metabolized |
| CCCc1nn(C)c2c(=O)[nH]c(-c3cc(S(=O)(=O)N4CCN(C)CC4)ccc3OCC)nc12.O=C(O)CC(O)(CC(=O)O)C(=O)O [SILDENAFIL CITRATE] | Compound NOT metabolized |
| N#Cc1ccc(C(c2ccc(C#N)cc2)n2cncn2)cc1 | Compound NOT metabolized |
| O=C(Nc1ccccc1)OCC(CN1CCCCC1)OC(=O)Nc1ccccc1 (centres undefined) | Compound metabolized |
| Clc1ccc(Cn2c(CN3CCCC3)nc3ccccc32)cc1 | Compound metabolized |
| CC(C)(C(=O)O)c1ccc(C(O)CCCN2CCC(C(O)(c3ccccc3)c3ccccc3)CC2)cc1 (centres undefined) [FEXOFENADINE] | Compound NOT metabolized |
| Cc1nc2n(c(=O)c1CCN1CCC(c3noc4cc(F)ccc34)CC1)CCCC2 | Compound metabolized |
